Molecular target: CDK2 CCNA2 (human) (UniProt P20248+P24941)
Assay: radiometric filter-binding kinase assay
Settings: compound 100.0 µM
Provide the recorded residual activity for the entries that follow.
Answers are plain numbers, in %.

Cc1cc(N=Nc2cc(S(=O)(=O)O)c(C)cc2C)c(N)cc1O | 94

Batch lookup, residual activity per entry.
1. N#Cc1c(O)c2c(-c3ccc(-c4ccccc4O)cc3)csc2[nH]c1=O
2. Cc1ccc2c(c1)C(=O)[C@@]1(O)CCN(c3ccccc3)C1=N2

1. 121
2. 92

For the compound shown here, COC(=O)/C=C/C(=O)OC , give the reported residual activity.
75

====

Molecular target: DYRK3 (human) (UniProt O43781)
Sequence (O43781 whole entry, looked up): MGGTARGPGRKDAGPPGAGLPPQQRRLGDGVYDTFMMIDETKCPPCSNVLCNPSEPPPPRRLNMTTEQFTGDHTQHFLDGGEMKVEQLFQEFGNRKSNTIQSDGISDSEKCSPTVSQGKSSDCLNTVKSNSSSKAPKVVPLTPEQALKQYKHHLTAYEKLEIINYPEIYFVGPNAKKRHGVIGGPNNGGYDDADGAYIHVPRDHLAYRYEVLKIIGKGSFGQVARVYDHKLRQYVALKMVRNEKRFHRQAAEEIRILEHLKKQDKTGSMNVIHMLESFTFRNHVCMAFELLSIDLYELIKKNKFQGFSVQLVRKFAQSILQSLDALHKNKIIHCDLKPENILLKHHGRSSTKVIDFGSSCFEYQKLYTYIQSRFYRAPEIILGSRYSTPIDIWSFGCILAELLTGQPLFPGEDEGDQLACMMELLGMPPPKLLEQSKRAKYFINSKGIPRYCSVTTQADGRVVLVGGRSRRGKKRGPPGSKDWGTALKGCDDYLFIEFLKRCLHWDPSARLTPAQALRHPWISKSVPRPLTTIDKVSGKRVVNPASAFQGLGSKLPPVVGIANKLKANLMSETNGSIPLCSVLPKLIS
Experiment: radiometric filter-binding kinase assay
Details: compound 0.01 µM
value.kind: residual activity
Form entry: enter the amount, then its unit.

CNC(=O)C1[C@H]2O[C@@](C)([C@@H]1N)n1c3ccccc3c3c4c(c5c6ccccc6n2c5c31)C(=O)NC4 (stereo partly specified) | 24%
C/C(=C1/C(=O)Nc2ccc(NC(N)=O)cc21)c1ccc[nH]1 | 74%
O=C(Nc1nc2cc(C(F)(F)F)cc(NC3CC3)n2n1)c1cccnc1 | 92%
COc1cc(O)c2c(c1)[C@H]1OC1C[C@H](O)[C@H](O)C(=O)/C=C\C[C@H](C)OC2=O (stereo partly specified) | 113%

Batch lookup, residual activity per entry.
1. CNc1nc(-c2ccc3c(N)n[nH]c3c2)cc(N2C[C@@H](C(=O)NC3CCCCC3)CC[C@H]2C)n1
2. COc1ccc(N(C(=O)Nc2c(C)cccc2C)c2cc(Nc3ccc(N4CCN(C)CC4)cc3)ncn2)c(OC)c1

1: 100%; 2: 92%

====

Biological target: NTRK1 (human) (UniProt P04629)
Sequence (P04629 whole entry, looked up): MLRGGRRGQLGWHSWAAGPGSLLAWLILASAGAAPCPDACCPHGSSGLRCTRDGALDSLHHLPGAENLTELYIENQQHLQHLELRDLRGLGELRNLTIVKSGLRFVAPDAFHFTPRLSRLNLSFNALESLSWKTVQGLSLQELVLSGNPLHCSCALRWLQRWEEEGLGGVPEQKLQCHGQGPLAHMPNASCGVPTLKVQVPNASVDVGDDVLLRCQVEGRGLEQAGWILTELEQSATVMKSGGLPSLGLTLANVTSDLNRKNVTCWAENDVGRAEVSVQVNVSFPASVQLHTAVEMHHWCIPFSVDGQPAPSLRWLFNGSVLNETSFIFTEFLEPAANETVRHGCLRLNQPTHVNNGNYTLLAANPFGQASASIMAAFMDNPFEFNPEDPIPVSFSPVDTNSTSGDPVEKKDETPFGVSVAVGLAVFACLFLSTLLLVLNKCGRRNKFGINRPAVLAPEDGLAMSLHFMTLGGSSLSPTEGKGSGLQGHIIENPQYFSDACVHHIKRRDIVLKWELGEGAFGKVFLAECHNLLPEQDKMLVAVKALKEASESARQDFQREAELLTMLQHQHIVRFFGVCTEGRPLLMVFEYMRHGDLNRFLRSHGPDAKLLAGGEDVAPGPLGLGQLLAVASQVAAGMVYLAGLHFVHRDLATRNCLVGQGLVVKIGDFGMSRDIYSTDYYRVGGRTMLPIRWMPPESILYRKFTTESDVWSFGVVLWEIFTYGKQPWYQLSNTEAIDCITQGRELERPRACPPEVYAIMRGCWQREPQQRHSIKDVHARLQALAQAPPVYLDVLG
Test: radiometric filter-binding kinase assay
Settings: compound 10.0 µM
value.kind: residual activity (%)
One number for each entry, in %.

Cc1ccc(Sc2cnc(Nc3cccc(Br)n3)s2)cc1C(=O)N1CCN(C(=O)CN)CC1 | 4
O=C(N[C@@H](COc1ccc2[nH]c(=O)[nH]c2c1)c1ccccc1)c1cccn(Cc2ccc(F)c(F)c2)c1=O | 78
NC(=O)c1cc2c(-c3cccc(-c4ccccc4)c3)cnc(N)c2s1 | 28
NC1(c2ccc(-c3nc4ccn5c(=O)[nH]nc5c4cc3-c3ccccc3)cc2)CCC1 | 87
NCC(=O)Nc1ccc(-n2nc(C(F)(F)F)cc2-c2ccc3c(ccc4ccccc43)c2)cc1 | 90
C=CC(=O)N1CCC[C@@H](n2nc(-c3ccc(Oc4ccccc4)cc3)c3c(N)ncnc32)C1 | 13
Cc1ccc(-c2ccc3c(ccc4sc5c(c43)NC[C@@H](C)NC5=O)n2)cn1 | 83
CC(C)C[C@H](NC(=O)CNC(=O)c1cc(Cl)ccc1Cl)B1OC(=O)CC(CC(=O)O)(C(=O)O)O1 (some centres undefined) | 95

For the molecule shown here, CCn1c(-c2nonc2N)nc2cncc(CNC3CCNCC3)c21 , give the reported residual activity.
97

====

Molecular target: MAP2K6 (human)
Assay: radiometric filter-binding kinase assay
Conditions: compound 10.0 µM
value.kind: residual activity (%)
One number for each entry, in %.

Below: 3 compounds and their reported residual activity.
O=C(N[C@@H](COc1ccc2[nH]c(=O)[nH]c2c1)c1ccccc1)c1cccn(Cc2ccc(F)c(F)c2)c1=O | 108
NC1(c2ccc(-c3nc4ccn5c(=O)[nH]nc5c4cc3-c3ccccc3)cc2)CCC1 | 104
NC(=O)c1ccc(-c2ccc(Oc3cncc4sc(-c5nn[nH]n5)cc34)cc2)cc1 | 99

Batch lookup, residual activity per entry.
1. C=CC(=O)N1CCC[C@@H](n2nc(-c3ccc(Oc4ccccc4)cc3)c3c(N)ncnc32)C1
2. NCC(=O)Nc1ccc(-n2nc(C(F)(F)F)cc2-c2ccc3c(ccc4ccccc43)c2)cc1
3. Oc1ccc(/C=C/c2cc(O)cc(O)c2)cc1
4. CCNc1nc(Nc2cc(F)c(C(=O)N3CCOCC3)cc2OC)ncc1C(F)(F)F
5. FC(F)(F)c1ccc(-c2ccc(Oc3cncc4sc(-c5nn[nH]n5)cc34)cc2)cc1
6. COc1cc2ncn(-c3cc(OCc4ccccc4S(C)(=O)=O)c(C#N)s3)c2cc1OC
7. Cc1ccc(=O)n(-c2ccccc2)c1
8. CCCC(CCC)C(=O)O

1: 61; 2: 74; 3: 87; 4: 31; 5: 100; 6: 84; 7: 88; 8: 95

Batch lookup, residual activity per entry.
1. O=S(=O)(c1ccc(F)c2nonc12)N1CCN(c2ncc(C(F)(F)F)cc2Cl)CC1
2. NS(=O)(=O)OC[C@@H]1C[C@@H](n2ccc3c(N[C@H]4CCc5ccccc54)ncnc32)C[C@@H]1O
3. NC(=O)c1cc(-c2ccnc(NC3CCCCC3)c2)nc(N2CCNCC2)c1
4. Cc1ccc2c(c1)C(=O)[C@@]1(O)CCN(c3ccccc3)C1=N2
5. CCn1c(-c2nonc2N)nc2cncc(CNC3CCNCC3)c21
6. COc1cc(C(=O)N2CCOCC2)c(F)cc1Nc1ncc(C(F)(F)F)c(NC2CC2)n1
7. Cc1ccc(-c2ccc3c(ccc4sc5c(c43)NC[C@@H](C)NC5=O)n2)cn1
8. COC(=O)/C=C/C(=O)OC

1: 95; 2: 94; 3: 16; 4: 94; 5: 96; 6: 31; 7: 91; 8: 92

Batch lookup, residual activity per entry.
1. CC(C)(C#N)c1ccc(N2C(=O)OCc3cnc4ccc(-c5cnc6ccccc6c5)cc4c32)cc1
2. NC(=O)c1c(NC(=O)C2CC2)sc2c1CCCC2
3. N#Cc1c(C2CCNCC2)cc(-c2c(O)cccc2OCC2CC2)nc1N
4. Cc1nc(-c2ccc(OCC(C)C)c(C#N)c2)sc1C(=O)O
5. CC1=C(CO)C(=O)O[C@@H]([C@@H](C)[C@H]2CC[C@H]3[C@@H]4C[C@H]5O[C@]56[C@@H](O)C=CC(=O)[C@]6(C)C4CC[C@]23C)C1 (some centres undefined)
6. N#Cc1c(O)c2c(-c3ccc(-c4ccccc4O)cc3)csc2[nH]c1=O
7. O=C(NOCC(O)CO)c1ccc(F)c(F)c1Nc1ccc(I)cc1Cl (centres undefined)

1: 92; 2: 99; 3: 83; 4: 81; 5: 109; 6: 85; 7: 67

Batch lookup, residual activity per entry.
1. CC(C)C[C@H](NC(=O)CNC(=O)c1cc(Cl)ccc1Cl)B1OC(=O)CC(CC(=O)O)(C(=O)O)O1 (some centres undefined)
2. O=C(NOC[C@H](O)CO)c1ccc(F)c(F)c1Nc1ccc(I)cc1Cl
3. CNc1nc(-c2ccc3c(N)n[nH]c3c2)cc(N2C[C@@H](C(=O)NC3CCCCC3)CC[C@H]2C)n1
4. O=C(Nc1ccccc1-c1cn2c(CN3CCNCC3)csc2n1)c1cnc2ccccc2n1
5. Nc1cccc2c1CN(C1CCC(=O)NC1=O)C2=O (centres undefined)
6. c1ccc2c(-c3cnn4cc(-c5ccc(N6CCNCC6)cc5)cnc34)ccnc2c1
7. CCCCCc1ccc(/C=C/[C@H](O)[C@@H](CO)NC)cc1
8. CCOC(=O)c1ccc(N2NC(=O)/C(=C/c3ccc([N+](=O)[O-])o3)C2=O)cc1

[92, 102, 94, 98, 100, 104, 99, 87]

====

Molecular target: PAK6 (human) (UniProt Q9NQU5)
Sequence (Q9NQU5 whole entry, looked up): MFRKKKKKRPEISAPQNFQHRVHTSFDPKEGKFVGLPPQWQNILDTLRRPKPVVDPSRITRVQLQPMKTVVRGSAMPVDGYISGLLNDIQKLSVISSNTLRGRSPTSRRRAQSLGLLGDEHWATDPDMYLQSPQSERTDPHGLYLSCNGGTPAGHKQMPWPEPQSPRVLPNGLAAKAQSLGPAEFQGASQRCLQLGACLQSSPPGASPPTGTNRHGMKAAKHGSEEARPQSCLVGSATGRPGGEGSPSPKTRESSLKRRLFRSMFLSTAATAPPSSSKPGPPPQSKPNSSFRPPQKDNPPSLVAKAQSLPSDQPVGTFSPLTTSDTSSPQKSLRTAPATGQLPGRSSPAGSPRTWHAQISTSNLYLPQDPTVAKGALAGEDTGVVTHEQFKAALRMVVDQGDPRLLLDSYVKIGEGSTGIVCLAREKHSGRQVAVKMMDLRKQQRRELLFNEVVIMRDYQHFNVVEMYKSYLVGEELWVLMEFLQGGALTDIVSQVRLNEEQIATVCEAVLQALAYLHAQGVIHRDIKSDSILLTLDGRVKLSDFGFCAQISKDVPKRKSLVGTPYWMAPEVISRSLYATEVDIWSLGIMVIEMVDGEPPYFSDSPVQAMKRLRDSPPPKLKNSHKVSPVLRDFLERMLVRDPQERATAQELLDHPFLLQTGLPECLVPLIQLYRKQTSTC
Assay: radiometric filter-binding kinase assay
Conditions: compound 10.0 µM
Provide the recorded residual activity for the entries that follow.

Below: 2 compounds and their reported residual activity.
COc1ccc2c(c1)c1c3c(c4c5ccccc5n(C)c4c1n2CC(O)CN(C)C)C(=O)NC3=O (stereo not drawn) | 71%
N#Cc1c(C2CCNCC2)cc(-c2c(O)cccc2OCC2CC2)nc1N | 83%

Shift focus to the following entry.
For the compound shown here, O=C(N[C@@H](COc1ccc2[nH]c(=O)[nH]c2c1)c1ccccc1)c1cccn(Cc2ccc(F)c(F)c2)c1=O , give the reported residual activity.
89%

====

Biological target: UniProt O43781
Assay: radiometric filter-binding kinase assay
Details: compound 1.0 µM
value.kind: residual activity (%)
Give bare numbers, in %.

Below: 5 compounds and their reported residual activity.
Oc1ccc2ccccc2c1SSc1c(O)ccc2ccccc12 | 54
NC1(c2ccc(-c3nc4ccn5c(=O)[nH]nc5c4cc3-c3ccccc3)cc2)CCC1 | 89
CN(C)C/C=C/C(=O)Nc1cccc(C(=O)Nc2ccc(Nc3nccc(-c4cccnc4)n3)cc2)c1 | 79
CCNc1nc(Nc2cc(F)c(C(=O)N3CCOCC3)cc2OC)ncc1C(F)(F)F | 96
O=C(Nc1nc2cc(C(F)(F)F)cc(NC3CC3)n2n1)c1cccnc1 | 91

Batch lookup, residual activity per entry.
1. Cc1cccc(-c2nn(C(=S)Nc3ccccc3)cc2-c2ccnc3ccccc23)n1
2. COc1ccc2c(c1)c1c3c(c4c5ccccc5n(C)c4c1n2CC(O)CN(C)C)C(=O)NC3=O (stereo not given)
3. Oc1ccc(/C=C/c2cc(O)cc(O)c2)cc1
4. COc1cc(O)c2c(c1)[C@H]1OC1C[C@H](O)[C@H](O)C(=O)/C=C\C[C@H](C)OC2=O (stereo not given in full)
5. CC(C)(C#N)c1ccc(N2C(=O)OCc3cnc4ccc(-c5cnc6ccccc6c5)cc4c32)cc1

1. 93
2. 57
3. 38
4. 124
5. 57
